This collection of values is drawn from paper PMC8458385.

Biological target: T1, ERH-2 D67A (C. elegans, UniProt Q20057 1-113, D67A)
T1 construct: ERH-2, C. elegans; Cloned into pET28-MHL; also called D67A of ERH-2; source: E. coli BL21(DE3), purified as the wild type; not shown: His tag (from the Ni-NTA purification), N-terminal, cleaved
T1 sequence (looked up): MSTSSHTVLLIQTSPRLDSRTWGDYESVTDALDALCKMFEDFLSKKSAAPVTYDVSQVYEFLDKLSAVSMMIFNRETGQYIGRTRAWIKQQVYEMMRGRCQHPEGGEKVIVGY
Assay: ITC; MicroCal ITC200, 25 °C, 20 mM Tris pH 8.5, 200 mM NaCl or 20 mM MES pH 6.5, 200 mM NaCl; 1–2 mM in the syringe into 30–50 μM in the cell; one-site binding model
Settings: both partners purified
OUTCOME_MEASURE: Kd (µM)
Could you give me the number in µM? Just the number is fine.

Per the records, this binder ( EDIKDSVFKVLHAEEEPRGAD (domain or fragment, C. elegans, UniProt O76616 180-200, looked up, Cloned into pET28-SUMO; the Kds are for the SUMO fusion protein; also called PICS-1^EBM; PICS-1^180-200; source: E. coli BL21(DE3), purified (Ni-NTA); not shown: SUMO, N-terminal, kept) [SUMO-fused PICS-1 ERH-2 binding motif (EBM, residues 180-200)] ) has Kd equal to 4.3
